test: physchem; conditions: water
experimental endpoint: solubility

Please report the recorded solubility for CCOc1ccc(Cc2cc([C@@H]3OC(CO)[C@@H](O)C(O)C3O)ccc2Cl)cc1 (stereo partly shown) .
~1000 µg/mL

----------
test: physchem; conditions: medium of pH 1.2, 37 °C, pH 1.2, simulated gastric fluid, thermodynamic from solid
experimental endpoint: solubility at 24 h (µg/mL)
Numbers only, in µg/mL.

CCOc1ccc(Cc2cc([C@@H]3OC(CO)[C@@H](O)C(O)C3O)ccc2Cl)cc1 (some centres unmarked) = 1200

Now, please, on to the next molecule.
Please report the recorded solubility at 24 h for `CCOc1ccc(Cc2cc([C@@H]3O[C@H](CO)[C@@H](O)[C@H](O)[C@H]3O)ccc2Cl)cc1` .
1700
